Biological target: Receptor tyrosine-protein kinase erbB-2 (Homo sapiens, UniProt P04626);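 also: inhibition of HER2 kinase enzyme activity, measured with Poly(Glu:Tyr) as the phosphorylation substrate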
Sequence (P04626 whole entry): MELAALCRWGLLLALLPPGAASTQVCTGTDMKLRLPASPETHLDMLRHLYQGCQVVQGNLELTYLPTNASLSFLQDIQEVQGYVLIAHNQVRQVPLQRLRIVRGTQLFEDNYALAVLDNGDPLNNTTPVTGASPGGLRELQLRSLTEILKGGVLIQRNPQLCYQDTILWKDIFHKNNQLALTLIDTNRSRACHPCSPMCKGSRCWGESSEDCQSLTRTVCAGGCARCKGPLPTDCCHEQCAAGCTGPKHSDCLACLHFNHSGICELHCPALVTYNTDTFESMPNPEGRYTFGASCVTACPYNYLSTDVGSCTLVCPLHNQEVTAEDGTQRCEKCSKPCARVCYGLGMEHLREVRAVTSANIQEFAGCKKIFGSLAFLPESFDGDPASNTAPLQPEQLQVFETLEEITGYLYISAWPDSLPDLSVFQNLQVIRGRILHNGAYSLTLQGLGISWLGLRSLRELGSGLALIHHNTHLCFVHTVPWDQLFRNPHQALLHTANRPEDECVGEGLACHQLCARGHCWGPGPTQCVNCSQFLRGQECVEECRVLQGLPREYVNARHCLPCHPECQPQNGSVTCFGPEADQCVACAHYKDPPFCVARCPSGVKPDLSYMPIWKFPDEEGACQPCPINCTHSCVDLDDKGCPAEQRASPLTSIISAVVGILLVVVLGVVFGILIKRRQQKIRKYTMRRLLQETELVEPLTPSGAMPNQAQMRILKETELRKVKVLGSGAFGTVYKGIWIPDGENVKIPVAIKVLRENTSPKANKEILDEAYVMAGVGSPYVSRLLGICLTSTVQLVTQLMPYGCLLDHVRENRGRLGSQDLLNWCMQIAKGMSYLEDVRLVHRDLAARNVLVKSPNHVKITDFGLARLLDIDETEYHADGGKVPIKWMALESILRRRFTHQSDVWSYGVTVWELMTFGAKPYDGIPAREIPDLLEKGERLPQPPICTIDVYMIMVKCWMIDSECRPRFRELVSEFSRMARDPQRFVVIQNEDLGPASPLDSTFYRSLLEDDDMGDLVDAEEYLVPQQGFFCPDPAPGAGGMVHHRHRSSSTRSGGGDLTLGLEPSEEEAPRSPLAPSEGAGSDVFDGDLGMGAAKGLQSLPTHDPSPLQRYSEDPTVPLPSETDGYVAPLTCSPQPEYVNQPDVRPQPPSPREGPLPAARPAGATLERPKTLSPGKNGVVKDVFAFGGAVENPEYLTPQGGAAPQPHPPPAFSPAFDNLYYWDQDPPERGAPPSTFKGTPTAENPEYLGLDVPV
Assay: biochemical
Type: cell-based, Insect cells
Details: read-out: IC50
reportedEndpoint: IC50 (nM)
Entry rule: numbers only, all in nM.

Name the recorded IC50 of the molecule listed here: COc1cccc2c1C(=O)c1c(O)c3c(c(O)c1C2=O)C[C@@](O)(C(=O)CO)C[C@@H]3O[C@H]1C[C@H](N)[C@H](O)[C@H](C)O1
2490

----------
Target: Alpha-2A adrenergic receptor (Homo sapiens)
Sequence (P08913 whole entry): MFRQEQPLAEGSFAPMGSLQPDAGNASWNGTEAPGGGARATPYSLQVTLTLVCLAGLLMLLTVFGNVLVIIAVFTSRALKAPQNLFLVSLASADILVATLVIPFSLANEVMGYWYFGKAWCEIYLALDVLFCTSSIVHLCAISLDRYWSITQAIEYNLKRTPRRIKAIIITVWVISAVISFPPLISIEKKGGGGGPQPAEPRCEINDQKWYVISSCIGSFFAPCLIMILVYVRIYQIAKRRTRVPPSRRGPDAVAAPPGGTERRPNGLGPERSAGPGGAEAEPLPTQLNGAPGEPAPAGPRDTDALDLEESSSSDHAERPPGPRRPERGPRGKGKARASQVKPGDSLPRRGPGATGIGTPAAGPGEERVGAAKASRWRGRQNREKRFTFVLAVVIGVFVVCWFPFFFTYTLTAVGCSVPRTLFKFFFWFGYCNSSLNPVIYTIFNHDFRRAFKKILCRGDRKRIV
Type: cell membranes, Sf9, Membrane
Details: read-out: Ki
reportedEndpoint: Ki (nM)
Entry rule: numbers only, all in nM.

Name the recorded Ki of the compound listed here: CN(C)c1ccc(C(=C2C=CC(=[N+](C)C)C=C2)c2ccc(N(C)C)cc2)cc1.[Cl-]
201

Name the recorded Ki of the compound listed here: CC(=O)N1CCN(c2ccc(OCC3COC(Cn4ccnc4)(c4ccc(Cl)cc4Cl)O3)cc2)CC1 (stereo not drawn)
7420

Name the recorded Ki of the compound listed here: S=C=Nc1cccc2ccccc12 [1-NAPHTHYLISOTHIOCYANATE]
2350
